Numbers sourced from paper PMC7766327.

- TARGET_OF_ASSAY: pneumolysin (Ply) (Streptococcus pneumoniae serotype 2, UniProt Q04IN8)
- Construct: made in house; host or cells: E. coli BL21(DE3)
- Sequence (Q04IN8 whole entry): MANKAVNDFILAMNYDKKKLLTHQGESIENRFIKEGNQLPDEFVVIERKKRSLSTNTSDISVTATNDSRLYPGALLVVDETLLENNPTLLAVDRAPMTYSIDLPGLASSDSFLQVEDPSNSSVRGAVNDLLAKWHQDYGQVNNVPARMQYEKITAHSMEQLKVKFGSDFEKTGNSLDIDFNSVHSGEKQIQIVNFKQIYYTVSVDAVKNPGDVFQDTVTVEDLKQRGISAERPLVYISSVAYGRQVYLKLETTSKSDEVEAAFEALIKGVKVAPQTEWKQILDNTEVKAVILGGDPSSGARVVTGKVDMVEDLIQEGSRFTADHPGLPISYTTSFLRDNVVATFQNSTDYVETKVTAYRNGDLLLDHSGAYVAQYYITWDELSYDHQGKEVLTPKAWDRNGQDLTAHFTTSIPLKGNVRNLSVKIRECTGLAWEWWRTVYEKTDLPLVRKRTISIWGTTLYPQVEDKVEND
- ASSAY: cell-based
- Type: cell-based
- RECORDED_CONDITIONS: Hemolysis Inhibition IC50, 1 nM Ply, 1% human erythrocytes, 30 min 37 °C, logistic fit
QUANTITY_KIND: IC50 (nM)

[[record]]
molecule = "O=C(OC[C@H]1O[C@@H](OC(=O)c2cc(O)c(O)c(O)c2)[C@H](OC(=O)c2cc(O)c(O)c(O)c2)[C@@H](OC(=O)c2cc(O)c(O)c(O)c2)[C@@H]1OC(=O)c1cc(O)c(O)c(O)c1)c1cc(O)c(O)c(O)c1 [PGG, 1,2,3,4,6-penta-O-galloyl-β-D-glucose]"
reported_measurement = 18

[[record]]
molecule = "O=C(O[C@@H]1O[C@@H]2COC(=O)c3cc(O)c(O)c(O)c3-c3c(cc(O)c(O)c3O)C(=O)O[C@H]2[C@H](OC(=O)c2cc(O)c(O)c(O)c2)[C@H]1OC(=O)c1cc(O)c(O)c(O)c1)c1cc(O)c(O)c(Oc2c(C(=O)O[C@H]3O[C@@H]4COC(=O)c5cc(O)c(O)c(O)c5-c5c(cc(O)c(O)c5O)C(=O)O[C@H]4[C@@H]4OC(=O)c5cc(O)c(O)c(O)c5-c5c(cc(O)c(O)c5O)C(=O)O[C@@H]34)cc(O)c(O)c2O)c1 [Gemin A]"
reported_measurement = 41

[[record]]
molecule = "O=C(O[C@H]1[C@@H]2OC(=O)c3cc(O)c(O)c(O)c3-c3c4cc(c(O)c3O)Oc3c(cc(O)c(O)c3O)C(=O)O[C@H]3C(O)O[C@@H]5COC(=O)c6cc(O)c(O)c(O)c6-c6c(cc(c(O)c6O)Oc6c(cc(O)c(O)c6O)C(=O)O[C@H]1C(O)O[C@@H]2COC4=O)C(=O)O[C@H]5[C@@H]3OC(=O)c1cc(O)c(O)c(O)c1)c1cc(O)c(O)c(O)c1 (stereo partly shown) [Oenothein B]"
reported_measurement = 55

[[record]]
molecule = "O=C1OCC2OC(=O)c3cc(O)c(O)c(O)c3-c3c(O)c(O)c(O)c4c3C(=O)OC(C2OC(=O)c2cc(O)c(O)c(O)c2-c2c1cc(O)c(O)c2O)C1OC(=O)c2c-4c(O)c(O)c(O)c2C1O (stereo not shown) [Vescalagin]"
reported_measurement = 240

